Cited source: ChEMBL document CHEMBL4400529

Test system: T47D
Assay: Antiproliferative activity against human T47D cells after 24 hrs by MTT assay
Format: functional, cell-based
valueType: pIC50
By convention, pIC50 is the negative base-10 log of a molar concentration.

Past entries and their recorded results:
{"structure": "O=S(=O)(Nc1ccc2cc[nH]c2c1)c1ccc(Cl)cc1", "readoutNumber": 4.34}
{"structure": "CC/C(=C(\\c1ccccc1)c1ccc(OCCN(C)C)cc1)c1ccccc1", "readoutNumber": 4.46}
{"structure": "O=C(Nc1ccc2cc[nH]c2c1)c1cccc(C(F)(F)F)c1", "readoutNumber": 4.55}

Looking up O=S(=O)(Nc1ccc2cc[nH]c2c1)c1ccc(F)cc1 , I found its pIC50 recorded as 4.48

Looking up Cc1ccc(S(=O)(=O)Nc2ccc3cc[nH]c3c2)cc1 , I found its pIC50 recorded as 4.24

Looking up COc1ccc(S(=O)(=O)Nc2ccc3cc[nH]c3c2)cc1 , I found its pIC50 recorded as 4.35

Looking up O=C(Nc1ccc2cc[nH]c2c1)c1ccc(C(F)(F)F)cc1 , I found its pIC50 recorded as 4.29

Looking up N#Cc1ccc(C(=O)Nc2ccc3cc[nH]c3c2)cc1 , I found its pIC50 recorded as 4.45

---

Documented pIC50 across a set of compounds
Biological target: Estrogen receptor (Homo sapiens, UniProt P03372)
Sequence (P03372 whole entry): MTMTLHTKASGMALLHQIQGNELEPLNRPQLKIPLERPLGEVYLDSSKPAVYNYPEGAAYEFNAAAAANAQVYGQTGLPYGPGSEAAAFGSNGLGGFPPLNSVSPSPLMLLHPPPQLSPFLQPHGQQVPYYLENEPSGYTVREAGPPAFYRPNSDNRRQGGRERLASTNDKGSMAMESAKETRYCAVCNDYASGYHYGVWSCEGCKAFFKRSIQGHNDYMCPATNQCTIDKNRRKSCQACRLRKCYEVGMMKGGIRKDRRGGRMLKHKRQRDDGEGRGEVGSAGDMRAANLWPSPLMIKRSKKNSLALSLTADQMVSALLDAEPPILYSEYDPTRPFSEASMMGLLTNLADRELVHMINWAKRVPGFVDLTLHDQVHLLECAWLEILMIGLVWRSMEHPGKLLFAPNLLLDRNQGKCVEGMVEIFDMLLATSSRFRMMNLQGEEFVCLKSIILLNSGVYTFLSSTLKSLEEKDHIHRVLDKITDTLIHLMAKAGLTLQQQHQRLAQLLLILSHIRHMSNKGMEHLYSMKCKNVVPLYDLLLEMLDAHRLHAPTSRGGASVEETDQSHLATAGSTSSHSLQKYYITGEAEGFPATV
By convention, pIC50 is the negative base-10 log of a molar concentration.

Looking up O=C(Nc1ccc2cc[nH]c2c1)c1ccc(F)cc1 , I found its pIC50 recorded as 7.16

---

Test system: MCF7
Test: Antiproliferative activity against human MCF7 cells after 24 hrs by MTT assay
Assay type: functional, cell-based
Conditions: MCF7, 24 h
valueType: IC50 (µM)
Kindly answer with a numeric value in µM, unit omitted.

Past entries and their recorded results:
{"structure": "Cc1ccc(S(=O)(=O)Nc2ccc3cc[nH]c3c2)cc1", "valueType": "IC50", "readoutNumber": 37.2}
{"structure": "COc1ccc(S(=O)(=O)Nc2ccc3cc[nH]c3c2)cc1", "valueType": "IC50", "readoutNumber": 57.2}
{"structure": "O=S(=O)(Nc1ccc2cc[nH]c2c1)c1ccc(F)cc1", "valueType": "IC50", "readoutNumber": 30.9}
{"structure": "N#Cc1ccc(C(=O)Nc2ccc3cc[nH]c3c2)cc1", "valueType": "IC50", "readoutNumber": 33.6}
{"structure": "O=S(=O)(Nc1ccc2cc[nH]c2c1)c1ccc(Br)cc1", "valueType": "IC50", "readoutNumber": 37.8}

Looking up O=C(Nc1ccc2cc[nH]c2c1)c1ccc(C(F)(F)F)cc1 , I found its IC50 recorded as 63.4

Looking up CC/C(=C(\c1ccccc1)c1ccc(OCCN(C)C)cc1)c1ccccc1 , I found its IC50 recorded as 42.4

Looking up O=S(=O)(Nc1ccc2cc[nH]c2c1)c1ccc(Cl)cc1 , I found its IC50 recorded as 54

Looking up O=C(Nc1ccc2cc[nH]c2c1)c1ccc(F)cc1 , I found its IC50 recorded as 45.9

Looking up O=C(Nc1ccc2cc[nH]c2c1)c1ccc(Br)cc1 , I found its IC50 recorded as 38.1

Looking up O=C(Nc1ccc2cc[nH]c2c1)c1cccc(C(F)(F)F)c1 , I found its IC50 recorded as 30.6
